- Test target: ETA (Sus scrofa, UniProt Q29010)
- Construct: crude receptor membrane samples (ETA) from smooth muscles of porcine thoracic aorta; from tissue; host or cells: porcine thoracic aorta smooth muscle, endothelium removed; crude membranes
- Sequence (Q29010 21-427): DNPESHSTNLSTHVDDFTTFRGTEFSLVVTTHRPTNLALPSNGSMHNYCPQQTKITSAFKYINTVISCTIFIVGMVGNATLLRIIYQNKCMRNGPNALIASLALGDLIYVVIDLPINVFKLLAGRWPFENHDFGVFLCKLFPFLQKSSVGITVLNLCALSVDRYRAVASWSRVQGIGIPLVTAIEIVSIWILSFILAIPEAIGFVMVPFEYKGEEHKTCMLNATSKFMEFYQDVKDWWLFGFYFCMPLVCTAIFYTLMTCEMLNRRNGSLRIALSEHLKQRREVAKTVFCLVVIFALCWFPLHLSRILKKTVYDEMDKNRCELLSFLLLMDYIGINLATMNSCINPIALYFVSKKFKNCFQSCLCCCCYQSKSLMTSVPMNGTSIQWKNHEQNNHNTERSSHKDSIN
- Measurement protocol: Endothelin binding inhibition experiment, 125I-endothelin-1 binding, ETA, membranes from smooth muscles of porcine thoracic aorta
- Particulars: 125I-endothelin-1 2×10^-11 M, 2 hours at 25° C., pH 7.4
- Description: Endothelin binding inhibition experiment Preparation of crude receptor membrane samples (ETA) from smooth muscles of porcine thoracic aorta: […]
Quantity kind: pIC50
# reply with the number alone; pIC50 is -log10 of concentration in mol/L

* COc1ccccc1Oc1c(NS(=O)(=O)c2ccc(C(C)(C)C)cc2)nc(N2CCN(C=O)CC2)nc1OCCC(=O)Nc1ccccc1C(C)C [Example 13] | 7.17

Consider the record given below.
[in] Requested read-out: pIC50. Entry: COc1ccccc1Oc1c(NS(=O)(=O)c2ccc(C(C)(C)C)cc2)nc(N2CCOCC2)nc1OCCC(=O)Nc1ccccc1C(C)C [Example 2]
[out] 7.20
